ASSAYED SYSTEM: hNET (Homo sapiens, UniProt P23975)
Sequence (P23975 whole entry): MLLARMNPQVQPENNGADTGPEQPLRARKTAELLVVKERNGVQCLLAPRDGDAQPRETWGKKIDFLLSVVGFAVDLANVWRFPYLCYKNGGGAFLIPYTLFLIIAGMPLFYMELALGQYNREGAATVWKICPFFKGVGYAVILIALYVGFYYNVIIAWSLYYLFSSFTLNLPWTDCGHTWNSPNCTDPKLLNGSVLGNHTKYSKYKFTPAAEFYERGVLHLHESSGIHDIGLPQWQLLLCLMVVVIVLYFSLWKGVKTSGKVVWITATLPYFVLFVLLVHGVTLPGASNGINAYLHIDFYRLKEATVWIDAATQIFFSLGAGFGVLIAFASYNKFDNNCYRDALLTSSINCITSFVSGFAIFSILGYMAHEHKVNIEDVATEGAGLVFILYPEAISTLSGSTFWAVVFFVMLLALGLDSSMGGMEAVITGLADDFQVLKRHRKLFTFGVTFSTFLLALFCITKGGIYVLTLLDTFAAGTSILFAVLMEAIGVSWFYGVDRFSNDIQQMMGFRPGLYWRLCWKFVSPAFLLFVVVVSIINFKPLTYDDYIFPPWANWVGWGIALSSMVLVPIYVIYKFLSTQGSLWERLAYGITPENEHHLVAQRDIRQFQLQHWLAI
MEASURED PARAMETER: pKi
Remember, pKi is on a log scale: it is -log10 of the molar concentration.

IN: Identify measured pKi obtained with hNET (Homo sapiens, UniProt P23975) for C#CCCN(C)CCCN1c2ccccc2CCc2ccc(N=[N+]=[N-])cc21 [compound 17] .
OUT: 6.94

---

ASSAYED SYSTEM: hDAT (Homo sapiens)
Construct: expressed in transfected cells
Sequence (Q01959 whole entry): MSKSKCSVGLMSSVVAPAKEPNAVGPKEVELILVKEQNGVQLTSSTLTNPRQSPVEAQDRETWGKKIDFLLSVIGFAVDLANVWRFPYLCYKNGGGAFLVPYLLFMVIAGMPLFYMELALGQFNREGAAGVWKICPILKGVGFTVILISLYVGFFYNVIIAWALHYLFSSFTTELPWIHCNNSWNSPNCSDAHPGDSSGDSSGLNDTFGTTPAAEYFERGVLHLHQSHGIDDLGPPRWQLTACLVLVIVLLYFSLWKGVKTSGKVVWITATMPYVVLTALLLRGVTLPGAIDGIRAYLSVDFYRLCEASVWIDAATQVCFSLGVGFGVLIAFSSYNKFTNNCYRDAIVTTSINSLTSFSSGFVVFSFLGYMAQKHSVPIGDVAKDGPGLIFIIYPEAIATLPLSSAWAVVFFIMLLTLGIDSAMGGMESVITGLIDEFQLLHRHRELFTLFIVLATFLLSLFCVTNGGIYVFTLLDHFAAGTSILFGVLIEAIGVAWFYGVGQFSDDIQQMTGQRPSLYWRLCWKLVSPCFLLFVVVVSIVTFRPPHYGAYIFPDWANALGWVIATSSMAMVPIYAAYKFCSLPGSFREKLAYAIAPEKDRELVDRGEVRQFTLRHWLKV
ASSAY PROCEDURE: Competitive MS Binding Assay (MSBA), (1R,3S)-indatraline as marker, HEK293 membrane fractions
PARTICULARS: read-out: Ki, DAT
MEASURED PARAMETER: Ki (nM)
Please reply with the bare figure in nM and do not write the unit itself.

IN: State recorded Ki with hDAT (Homo sapiens), entry "C#CCCN(C)CCCN1c2ccccc2CCc2ccc(N=[N+]=[N-])cc21" , no comment.
OUT: 1640
